Reference source for all entries: ChEMBL document CHEMBL4402535

measurement.target: Acetylcholinesterase (Electrophorus electricus)
Sequence (O42275 whole entry): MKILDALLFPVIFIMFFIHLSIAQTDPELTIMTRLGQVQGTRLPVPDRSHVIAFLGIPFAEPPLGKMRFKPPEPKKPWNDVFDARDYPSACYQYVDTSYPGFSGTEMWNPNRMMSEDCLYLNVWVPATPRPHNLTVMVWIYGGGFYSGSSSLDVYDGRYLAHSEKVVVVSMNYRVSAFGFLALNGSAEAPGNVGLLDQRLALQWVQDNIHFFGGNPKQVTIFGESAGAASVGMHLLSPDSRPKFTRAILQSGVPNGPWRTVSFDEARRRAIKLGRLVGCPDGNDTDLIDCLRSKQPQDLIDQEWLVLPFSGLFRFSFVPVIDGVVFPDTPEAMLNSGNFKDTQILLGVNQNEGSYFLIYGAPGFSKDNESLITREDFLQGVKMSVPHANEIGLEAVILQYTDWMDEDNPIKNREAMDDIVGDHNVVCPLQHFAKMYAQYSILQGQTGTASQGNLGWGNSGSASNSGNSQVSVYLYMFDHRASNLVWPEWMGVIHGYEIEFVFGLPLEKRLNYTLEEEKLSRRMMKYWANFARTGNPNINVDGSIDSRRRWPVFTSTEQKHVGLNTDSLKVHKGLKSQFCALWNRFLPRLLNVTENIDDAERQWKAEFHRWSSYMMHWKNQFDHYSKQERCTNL
measured.endpoint: IC50 (µM)

> print(dat)
                              record.smiles  result.units  meas.value
1  O=c1oc2c(O)c(O)cc3c(=O)oc4c(O)c(O)cc1c4c23            µM         133

====

measurement.target: Amyloid-beta precursor protein (Homo sapiens)
Sequence (P05067 whole entry): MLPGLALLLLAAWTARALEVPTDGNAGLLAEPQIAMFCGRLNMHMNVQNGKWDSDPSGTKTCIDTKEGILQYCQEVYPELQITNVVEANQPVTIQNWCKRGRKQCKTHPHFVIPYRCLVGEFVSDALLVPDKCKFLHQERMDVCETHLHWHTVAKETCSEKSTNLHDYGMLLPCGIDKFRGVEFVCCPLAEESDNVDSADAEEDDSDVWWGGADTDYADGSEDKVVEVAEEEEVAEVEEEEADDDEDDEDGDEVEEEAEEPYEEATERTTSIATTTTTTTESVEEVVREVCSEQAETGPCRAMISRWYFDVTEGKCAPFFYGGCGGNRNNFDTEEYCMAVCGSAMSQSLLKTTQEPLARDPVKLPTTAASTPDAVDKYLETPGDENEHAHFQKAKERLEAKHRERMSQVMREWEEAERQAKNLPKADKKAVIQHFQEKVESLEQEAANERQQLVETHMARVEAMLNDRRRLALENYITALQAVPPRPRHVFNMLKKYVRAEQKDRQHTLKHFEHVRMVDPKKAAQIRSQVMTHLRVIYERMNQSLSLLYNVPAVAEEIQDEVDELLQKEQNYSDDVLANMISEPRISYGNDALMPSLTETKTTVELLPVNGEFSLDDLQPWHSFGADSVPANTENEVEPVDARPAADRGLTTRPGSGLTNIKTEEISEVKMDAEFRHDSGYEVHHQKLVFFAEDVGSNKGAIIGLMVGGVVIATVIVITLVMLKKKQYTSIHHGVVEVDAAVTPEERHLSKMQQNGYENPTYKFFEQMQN
procedure.text: Inhibition of beta amyloid (unknown origin) after 12 to 24 hrs
measured.endpoint: IC50

> print(dat)
                              record.smiles     meas.value
1  O=c1oc2c(O)c(O)cc3c(=O)oc4c(O)c(O)cc1c4c23  100 to 300 µM

====

measurement.target: Amine oxidase [flavin-containing] A (Homo sapiens)
Sequence (P21397 whole entry): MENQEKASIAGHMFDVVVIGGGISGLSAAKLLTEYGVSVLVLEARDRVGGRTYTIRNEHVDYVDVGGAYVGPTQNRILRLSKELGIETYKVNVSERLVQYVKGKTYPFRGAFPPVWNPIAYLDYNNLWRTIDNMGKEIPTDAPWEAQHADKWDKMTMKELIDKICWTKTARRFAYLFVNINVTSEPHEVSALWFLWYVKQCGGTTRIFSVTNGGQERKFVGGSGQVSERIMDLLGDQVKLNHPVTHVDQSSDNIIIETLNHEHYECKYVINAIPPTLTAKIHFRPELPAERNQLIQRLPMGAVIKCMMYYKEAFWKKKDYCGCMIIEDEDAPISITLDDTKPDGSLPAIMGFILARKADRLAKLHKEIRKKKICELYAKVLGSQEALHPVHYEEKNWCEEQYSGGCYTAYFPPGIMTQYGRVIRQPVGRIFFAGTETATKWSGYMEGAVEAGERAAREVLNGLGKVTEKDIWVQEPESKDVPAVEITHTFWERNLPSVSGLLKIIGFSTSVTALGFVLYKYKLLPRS
procedure.text: Inhibition of MAO-A (unknown origin)
measured.endpoint: EC50 (nM)

> print(dat)
                                   molecule  meas.value
1  O=c1oc2c(O)c(O)cc3c(=O)oc4c(O)c(O)cc1c4c23 [ELLAGIC ACID]        1600

====

procedure.text: Antioxidant activity assessed as O2 radical scavenging activity after 1 hr
Type: functional
measured.endpoint: EC50 (µM)

> print(dat)
                              record.smiles  meas.value
1  O=c1oc2c(O)c(O)cc3c(=O)oc4c(O)c(O)cc1c4c23         177
